# Tested target: recombinant mouse 11β-HSD1 (Mus musculus, UniProt P50172)
# Sequence (P50172 whole entry): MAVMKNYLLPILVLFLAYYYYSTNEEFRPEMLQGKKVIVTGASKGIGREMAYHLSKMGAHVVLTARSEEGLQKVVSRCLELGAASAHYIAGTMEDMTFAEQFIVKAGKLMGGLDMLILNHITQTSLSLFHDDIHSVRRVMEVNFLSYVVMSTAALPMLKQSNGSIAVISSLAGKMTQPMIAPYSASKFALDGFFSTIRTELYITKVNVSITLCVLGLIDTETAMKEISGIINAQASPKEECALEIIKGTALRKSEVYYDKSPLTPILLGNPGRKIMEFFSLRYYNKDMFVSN
# Measurement description: Enzyme activity assay on mouse 11β-HSD1 (HTRF)
# Assay context: recombinant mouse 11β-HSD1, 2μM 11-dehydrocorticosterone as substrate, 2 hours at 37° C.; read-out: mouseIC50
Assay readout: pIC50
As a rule, pIC50 stands for the negative log10 of the concentration, concentration in M.

Cn1ncc(C(=O)NC23CC4CC(CC(C4)C2)C3)c1Sc1ccccc1 | 4.96

Input: Entry Cn1ncc(C(=O)NC2C3CC4CC(C3)CC2C4)c1OCc1ccccc1 (stereo not shown) : reported pIC50 = ?
Output: 5.80

Input: Tell me the measured pIC50 of Cn1ncc(C(=O)NC23CC4CC(CC(C4)C2)C3)c1Oc1ccccc1 , please.
Output: 4.62

Input: State the recorded pIC50 for this entry: Cn1ncc(C(=O)NC2C3CC4CC(C3)CC2C4)c1OCCc1ccccc1 (stereo not shown)
Output: 6.15

Input: Fill blank: measured pIC50 of the compound Cn1ncc(C(=O)NC2C3CC4CC(C3)CC2C4)c1OC1CCCCC1 (stereo not shown) is ____.
Output: 6.03

Input: Entry under review: Cn1ncc(C(=O)NC23CC4CC(CC(C4)C2)C3)c1OCc1ccccc1 . Reported pIC50?
Output: 5.23
